Experiment: soluble on expression in E. coli; label from the status in PepcDB or PDB records

query_sequence	soluble on expression in E. coli
MTCDDWNSYIQVNIYGKTIEGLQQQGVVLESLLNNVGCSKVWIMEGSVCTNPRPESSTHSEESTIEPVVPLSTTLATNKLPRFSTPAIGHSNNNSSKNFTLNLAEKLSEILSDDDKTDEFLENSHQSETSKDDVIKDLLEEMVQTVANSNKPPILLSTTLANVGVPRFSTPIKPQHALNRDFTMNMTEMISEIDSNYEGYELFDDSSNDCTTLTPNCQEVESSFYRALSEAASSIVPYQEGKRRSSRRLSTLSSLKETVKVEPAVSKLTKRRRLTPVECSSETMIPHSQPIPLDTCSDQPIFPNSTHNAIQSDGFSYEQPICEFGDSQLFLSAKSLCTEPNSSIAEDVKPVLTVSDSDITASNRNNIDDHNRVIELSTEV	not soluble
MGSDKIHHHHHHMNSNPFVSVVMSVYNGGEFLKDAINSILSQSYKNFEFIIINDGSSDNFSEILELYDDERIKVLNNQENKGLVYSLNRGLLESIGKYIVRMDADDISLPNRIEKQVEFMEREPEVGVCGSYIEIFGDTIKRKVQRFPSNVNVNEAFLLFSTCLAHPSVIIRKSIVDKYKLRYDDRYLHAEDYAIWCQAVKYTKISNIREVLLKYRILESSVTRQANKNFQSRFDVHKSIYKDIFRNKGIDYTEKELYLHFIISDNNRFRNQALTIRPSEINAHLTKILSHYRGASNYKYIAFLVNKRGLSLSRWYSESRGFYFIMYLFKFLYYKIQIKK	not soluble
